This document collects IC50 values reported for human μ-opioid receptor (Homo sapiens, UniProt P35372).
Write the number in µM without appending the unit.

CN(CCNC(=O)[C@@H](N)CCCCN)C(=O)Oc1ccc2c3c1OC1C(=O)CCC4[C@@H](C2)N(C)CC[C@]314 (stereo partly shown) [Example 7] = 0.79
CN(CCNC(=O)[C@H](CCCNC(=N)N)NC(=O)c1ccc2c(c1)OCO2)C(=O)Oc1ccc2c3c1OC1C(=O)CCC4[C@@H](C2)N(C)CC[C@]314 (stereo partly shown) [Example 6] = 0.79
CN(CCNC(=O)[C@@H](N)CCCNC(=N)N)C(=O)Oc1ccc2c3c1OC1C(=O)CCC4[C@@H](C2)N(C)CC[C@]314 (stereo partly shown) [Example 1] = 2.1

Continue with the compound presented below.
Problem: Data request, read-out IC50, for CC(=O)N[C@@H](CCCNC(=N)N)C(=O)NCCN(C)C(=O)Oc1ccc2c3c1OC1C(=O)CCC4[C@@H](C2)N(C)CC[C@]314 (stereo partly shown) [Example 3]
Result: 1.3
